measuredOn: factor VII/VIIa (Homo sapiens)
Construct: from tissue
Sequence (P08709 61-466): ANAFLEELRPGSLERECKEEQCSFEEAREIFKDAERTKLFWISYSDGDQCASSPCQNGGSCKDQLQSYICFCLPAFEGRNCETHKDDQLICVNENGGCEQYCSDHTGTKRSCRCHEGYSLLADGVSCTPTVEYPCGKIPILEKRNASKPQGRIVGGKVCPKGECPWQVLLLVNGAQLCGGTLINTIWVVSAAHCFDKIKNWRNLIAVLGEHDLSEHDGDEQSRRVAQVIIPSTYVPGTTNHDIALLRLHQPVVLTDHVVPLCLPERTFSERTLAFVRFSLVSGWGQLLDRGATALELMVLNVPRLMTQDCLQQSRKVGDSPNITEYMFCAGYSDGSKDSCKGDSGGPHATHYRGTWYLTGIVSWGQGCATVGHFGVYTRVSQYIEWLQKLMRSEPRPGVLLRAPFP
measurementProtocol: Inhibition of factor X activation on J82 cells by huTFh polypeptides
Format: cell-based
testContext: O.D. at 405 nm of factor Xa chromogenic product; 50 ul polypeptide solution at 100 uM; PBS control 0.960, no factor VII 0.005; significant if about 0.500 or less
Values of Optical Density greater than or equal to 0.6 map to t; values below map to f.

Exam item: decide whether the reported Optical Density for H-LARVFSYPAGNVESTGSAGEPLYENSPEFTPYLC-OH [p72-104] is at least 0.6. t

hey, is Optical Density for this one >= 0.6? H--TKSGDWKSKCFYTTDTECDLTDEIVKDVKQTY--OH (H-TKSGDWKSKCFYTTDTECDLTDEIVKDVKQTY-OH; cysteine pairing not given here) [p40-71] t

For this substance, is measured Optical Density 0.6 or higher? H-TKVNVTVEDERTLVRRNNTFLSLRDVFGKDLIYTL-OH [p121-155] t

Is it the case that H-RDVFGKDLIYTLYYWK-OH [p144-159, H--RDVFGKDLIYTLYYWK--OH] has Optical Density reaching or exceeding 0.6? f

API: above_or_equal(metric=Optical Density, cutoff=0.6) for item p244-263: huTFh polypeptide of Table 10; sequence not printed; probably p245-263 (KCRKAGVGQSWKENSPLNVS; UniProt P13726 276-295, looked up, fragment) t

Assess whether reported Optical Density for H-YWKSSSSGKKTAK-OH [p157-169, H--YWKSSSSGKKTAK--OH] sits at 0.6 or higher. f

Hello, I need to know if H-EPKPVNQVYTVQISTKSGDWKSKC-OH [p26-49] has measured Optical Density not below 0.6. Thanks! f

Could you please find out whether H-QAVIPSRTVNRKSTDSPVEC-OH [p190-209] has Optical Density that meets 0.6 or exceeds it? t

Hi team, for H-DSPVECMGQEKGEFREIFYIIGA-OH [p204-226] , is the recorded Optical Density at or above 0.6? t

Would you say p1-18: huTFh polypeptide; designation represents included residues of FIG. 1; sequence not printed (SGTTNTVAAYNLTWKSTN; UniProt P13726 33-50, looked up, fragment) shows Optical Density at minimum 0.6? t
